Assign Growth Rate to each entry below.
- Tested on: Fibroblast
- protocol text: Incucyte cell viability with human fibroblast; also: unitless GR value; below 1 slowed growth and below 0 cell loss
- Format: toxicity, cell-based
- experimental setup: 18 h, 10 µM, compound concentration 10 uM, replicate number 2

Exercise: # lookup: Growth Rate of CN(C)CCC[C@@]1(c2ccc(F)cc2)OCc2cc(C#N)ccc21 [ESCITALOPRAM]
Key: 0.85

Exercise: Continue with CC(=O)Nc1ncc(CN2CCC[C@H](Cc3cc(C)nc(C)c3)C2)s1 [JNJ-65355394]
Key: 0.94

Exercise: Lookup Cc1cc(O)c(-c2ccc([C@@H](C)CN(C)C)cc2)c2c1[nH]c(=O)c1sccc12
Key: -0.35

Exercise: Note, next up: COC(=O)c1sccc1S(=O)(=O)Nc1ccc(Nc2ccccc2)cc1OC
Key: 0.95

Exercise: And for c1ccc2c(c1)SCc1c-2[nH]c2ccccc12 ?
Key: -0.94

###

- Tested on: U2OS
- protocol text: Incucyte cell viability with U2OS; also: unitless GR value; below 1 slowed growth and below 0 cell loss
- Assay type: toxicity, cell-based
- experimental setup: human, 18 h, 10 µM, compound concentration 10 uM, replicate number 2
// NB: equality with 0.6 counts as false (0); only Growth Rate strictly below is true (1)

Exercise: I'd appreciate it if you could check whether Br.CO[C@H]1CC=C2CCN3CCC4=C(CC(=O)OC4)[C@]23C1 has Growth Rate smaller than 0.6.
Key: false (0)

Exercise: Next up: CCc1cnn2c(NCc3ccc[n+]([O-])c3)cc(N3CCCCC3CCO)nc12 (centres undefined)
Key: true (1)

Exercise: Subsequent entry: O=S1(=O)NCN(C2CC2)c2ccc(F)cc21
Key: false (0)

Exercise: Let us now turn to CN(C(=O)c1ccccc1)c1ccc2c(c1)nc(NC(=O)c1ccc(Br)s1)n2CCC(N)=O
Key: false (0)

Exercise: Also, CNCc1ccc(-c2cc(-c3nc(-c4ccc(S(=O)(=O)C(C)C)cc4)cnc3N)on2)cc1 please.
Key: true (1)

Exercise: Try the compound C[C@@H]1C[C@H](C)CN(c2ncc(Cl)c(Nc3ccc4c(c3)cc(OC(C)(C)C(=O)O)c(=O)n4C)n2)C1
Key: true (1)

Exercise: COc1ccccc1-n1nc(C2CC(C)(C)OC(C)(C)C2)cc1-c1ccc(Cl)cc1 ?
Key: false (0)

Exercise: Thanks! And S=c1[nH]nc(-c2cccs2)n1-c1ccccc1 ?
Key: false (0)

###

I'd be grateful if you could share measured Growth Rate for these entries.
- System: Fibroblast
- protocol text: Incucyte cell viability with human fibroblast; also: unitless GR value; below 1 slowed growth and below 0 cell loss
- Format: toxicity, cell-based
- experimental setup: 6 h, 10 µM, compound concentration 10 uM, replicate number 1

Exercise: # input molecule: OC(CN1CCC(Cc2ccc(F)cc2)CC1)c1ccc(Cl)cc1 (centres undefined) ; wanted: its Growth Rate
Key: -0.61

Exercise: Query NC(=O)c1ccc(-c2nc(-c3ccc4c(c3)OCO4)c(-c3ccccn3)[nH]2)cc1.O next
Key: -0.01

Exercise: Follow-up entry: Nc1nc2cc(-c3cc(Cl)ccc3Oc3cc(F)c(S(=O)(=O)Nc4ncns4)cc3F)ccc2[nH]1
Key: -0.93

Exercise: Input O=C(Nc1ccc(-n2nc(C(F)(F)F)cc2C(F)(F)F)cc1)c1ccncc1F
Key: 0.37

Exercise: Likewise for Clc1ccc(-c2nc3sccn3c2/C=N/OCc2ccc(Cl)c(Cl)c2)cc1 ?
Key: 0.02

Exercise: And for O=C(O)c1ccc(-c2c[nH]c3ncc(-c4ccccc4)cc23)cc1C1CCCC1 ?
Key: 0.36

Exercise: Try this molecule too: NC(=O)c1ccc2[nH]c(-c3ccc(Oc4ccc(Cl)cc4)cc3)nc2c1
Key: -0.26

Exercise: Repeat with CC(C)(C)c1cc(NC(=O)c2csc(Nc3ccccn3)n2)no1
Key: 0.76

Exercise: Item: CC/C(=C(\c1ccc(O)cc1)c1ccc(OCCN(C)C)cc1)c1ccccc1
Key: -0.74

Exercise: What would you report for CCN(CC)CCO[C@H]1CC[C@@]2(C)C(=CC[C@@H]3[C@@H]2CC[C@]2(C)C(=O)CC[C@@H]32)C1.Cl ?
Key: 0.34

Exercise: Another molecule: COc1ccc(Cl)cc1[C@]1(F)C(=O)Nc2cc(C(F)(F)F)ccc21
Key: -0.6

Exercise: Also, C[C@@H](NC(=O)Cc1ccc(C2CC2)cc1)c1ccc(OCC(F)(F)F)cn1 please.
Key: 0.85

Exercise: Now consider C=C1/C(=C\C=C2/CCC[C@]3(C)[C@@H]([C@H](C)CCCC(C)(C)O)CC[C@@H]23)C[C@@H](O)C[C@@H]1O and answer again.
Key: 0.62

Exercise: Try this molecule too: COc1cc2ncnc(Nc3ccc(Oc4ccccc4)cc3C)c2cc1OC.Cl
Key: 0.3

Exercise: Also check CC(C)(C[C@H]1CN(S(=O)(=O)c2cccc(C(F)(F)F)c2)c2cc(-c3cc(F)cc(OC(F)F)c3)ccc2O1)C(=O)O
Key: -0.68

Exercise: Can you handle C1CCC(NC2CCCCC2)CC1.Cc1cc(Cl)ccc1S(=O)(=O)NC[C@H]1C2CCC(CC2)[C@@H]1/C=C\CCCC(=O)O next?
Key: 0.25

Exercise: Further, for Cc1nc(Nc2cnn(C3CCNCC3)c2)nc2c1N(C)C(=O)c1cc3ccccc3cc1N2C ?
Key: -0.01

Exercise: Another molecule to look at: CC(=O)Nc1c(F)cc(C(=O)N[C@H]2CC[C@H](O)CC2)cc1O[C@@H](C)c1ccccc1
Key: 0.63

Exercise: Try the molecule Cc1cn([C@H](C)CC#N)c(=O)c2cc(Cn3nc(C(F)F)cc3Cl)nn12
Key: 0.89

Exercise: Could you do the same for CC(C)(c1ccc(OCc2cccc(COc3ccc(C(=N)N)cc3)c2)cc1)c1ccc(O[C@@H]2O[C@H](C(=O)O)[C@@H](O)[C@H](O)[C@H]2O)cc1.O=C(O)C(F)(F)F , please?
Key: 0.34

Exercise: Try COc1cc2nc(C)nc(N[C@H](C)c3cc(N)cc(C(F)(F)F)c3)c2cc1O[C@H]1CCOC1 next.
Key: 0.72

Exercise: Also check Cc1ccc(S(=O)(=O)Nc2ccc(-n3nc(C(F)(F)F)cc3C(F)(F)F)cc2)cc1
Key: -0.21

Exercise: Also, CC1CN(CC(=O)N2CC(C)(C)c3nc(CO)c(Cc4ccc(F)cc4)cc32)C(CN2CCOCC2C)CN1 (centres undefined) please.
Key: 0.63

Exercise: What would you report for CC(=O)Nc1cccc(-n2c(=O)n(C3CC3)c(=O)c3c(Nc4ccc(I)cc4F)n(C)c(=O)c(C)c32)c1 ?
Key: 0.65

Exercise: Could you do the same for CCCCCCCC/C=C\CCCCCCCC(=O)NCCO [OLEOYLETHANOLAMIDE] , please?
Key: 0.19

Exercise: Next molecule up: Cl.O=C1c2cccc3c2[C@H](CCC3)CN1[C@@H]1CN2CCC1CC2 [PALONOSETRON HYDROCHLORIDE]
Key: -0.99

Exercise: What do you get for C=CC(=O)N1CCC[C@@H](n2nc(C(=O)Nc3ccc(CC(=O)N(C)C)c(C)c3C)c3c(N)ncnc32)C1 ?
Key: -0.17

Exercise: Next: Cc1nnc2ccc(-c3cccc(C(F)(F)F)c3)nn12
Key: 0.38

Exercise: Entry to check: Cc1[nH]nc2ccc(-c3cncc(OCC(N)Cc4ccccc4)c3)cc12 (centres undefined)
Key: -1

Exercise: Queued: COc1cc(Cl)c(C(=O)N[C@@H](CN[C@H]2CC[C@@H](N)CC2)Cc2ccc(C#N)cc2)cc1-c1ccc(CN[C@H](C)c2ccc(C)cc2)o1
Key: -0.93

Exercise: Here is the next molecule: O=S(=O)(Nc1nnc2cc(OCC34CC5CC(CC(C5)C3)C4)c(C3CC3)cn12)C1CC1
Key: 0.92

Exercise: Now consider FC(F)(F)Oc1ccc(-c2ccc3nnc(C(F)(F)F)n3c2)cc1 .
Key: -0.05

Exercise: Then this molecule: CN[C@@H](C)C(=O)N[C@H](C(=O)N1CCC[C@H]1C(=O)Nc1snnc1-c1ccccc1)C1CCCCC1
Key: -0.88

Exercise: // query: CC(C)c1ccc(/C=N/NC(=O)c2ccc(O)cc2)cc1
Key: -0.99
